# Tested on: OVCAR-3 ovarian
# experiment-summary: NCI-60 one-dose screen, 48 h (100 = growth as untreated, 0 = no growth, -100 = all killed)
# condition: 10 µM unless noted
About 83,000 compounds went through this panel and 20% of them were active in at least one assay; those are over-represented in the sample as a whole.
result-type: growth (%)
The figure you give is taken to be in %; do not add the unit.

In the examples that follow, each entry is paired with its recorded growth.
molecule	measured-target	growth / %
CCOC(=O)c1c(-c2ccc(Cl)cc2)c(C#N)c(=O)n(-c2ccccc2CC)c1N	OVCAR-3 ovarian	87.8
O=C(/C=C/c1cccc(O)c1)c1cccc(-n2cc(-c3ccc4ccccc4c3)[nH]c2=O)c1	OVCAR-3 ovarian	-73.2
CC(CN1CCCCC1)C(=O)c1ccccc1 (centres undefined)	OVCAR-3 ovarian	109

// query Bench note: what growth did Cc1ccc(C(=O)COc2cccc(/C=C3\Oc4ccccc4C3=O)c2)cc1 show?
// result 96.6
